Measured Tubulin Assay: percent inhibition at 10 μM based on 30 minute data of individual entries
System: bovine tubulin
protocol.summary: In vitro tubulin polymerization assay (turbidity at 340 nm)
Format: biochemical
measurement.conditions: 10 μM compound, 30 minute data point, vs 1% DMSO control
measurement.kind: Tubulin Assay: percent inhibition at 10 μM based on 30 minute data (%)

> print(dat)
                                chem.smiles  experimental.target  reported
1  O=S(=O)(Nc1ccccc1-c1nnc(Nc2ccc3c(c2)OCCO3)[nH]1)c1cccc(OC(F)(F)F)c1       bovine tubulin        61
2  COc1cccc(-c2nnc(-c3cccnc3OCc3ccc4c(c3)OCO4)[nH]2)c1       bovine tubulin        20
3  FC(F)(F)Oc1ccc(Nc2nnc(-c3cccnc3NCc3ccc4c(c3)OCO4)o2)cc1       bovine tubulin        28
4  COc1cc(Nc2nnc(-c3cccnc3Nc3cc(OC)cc(OC)c3)o2)cc(OC)c1       bovine tubulin        48
5  COc1cc(Nc2ncccc2-c2nc(Nc3ccc4c(c3)OCO4)n(C)n2)cc(OC)c1       bovine tubulin        77
